Where do these numbers come from? They come from patent US8354434B2.

system.tested: N-type calcium channel (NTCC) (Homo sapiens)
Construct: endogenous in cells
test.method.notes: FLIPR calcium mobilization assay for N-type calcium channel
experimental.context: calcium mobilization in vitro assay, differentiated IMR32 cells
pIC50: −log10 of the molar value.
# binarize pIC50: threshold 6 inclusive, high side Fulfilled, low side Not fulfilled

                        structure_as_smiles                             system_tested  discrete_label
0  O=C1N(CCCC(c2ccc(F)cc2)c2ccc(F)cc2)CCN1C1CC1  N-type calcium channel (NTCC) (Homo sapiens)       Fulfilled

Next:
Given O=C1N(CCC(c2ccccc2)c2ccccc2)CCN1c1ccccc1 , state whether its pIC50 is at least 6.
Not fulfilled

###

Reported IC50 values are given for each entry in this list.
system.tested: N-type calcium channel (NTCC) (Homo sapiens, UniProt Q00975)
Construct: endogenous in cells
Sequence (Q00975 whole entry): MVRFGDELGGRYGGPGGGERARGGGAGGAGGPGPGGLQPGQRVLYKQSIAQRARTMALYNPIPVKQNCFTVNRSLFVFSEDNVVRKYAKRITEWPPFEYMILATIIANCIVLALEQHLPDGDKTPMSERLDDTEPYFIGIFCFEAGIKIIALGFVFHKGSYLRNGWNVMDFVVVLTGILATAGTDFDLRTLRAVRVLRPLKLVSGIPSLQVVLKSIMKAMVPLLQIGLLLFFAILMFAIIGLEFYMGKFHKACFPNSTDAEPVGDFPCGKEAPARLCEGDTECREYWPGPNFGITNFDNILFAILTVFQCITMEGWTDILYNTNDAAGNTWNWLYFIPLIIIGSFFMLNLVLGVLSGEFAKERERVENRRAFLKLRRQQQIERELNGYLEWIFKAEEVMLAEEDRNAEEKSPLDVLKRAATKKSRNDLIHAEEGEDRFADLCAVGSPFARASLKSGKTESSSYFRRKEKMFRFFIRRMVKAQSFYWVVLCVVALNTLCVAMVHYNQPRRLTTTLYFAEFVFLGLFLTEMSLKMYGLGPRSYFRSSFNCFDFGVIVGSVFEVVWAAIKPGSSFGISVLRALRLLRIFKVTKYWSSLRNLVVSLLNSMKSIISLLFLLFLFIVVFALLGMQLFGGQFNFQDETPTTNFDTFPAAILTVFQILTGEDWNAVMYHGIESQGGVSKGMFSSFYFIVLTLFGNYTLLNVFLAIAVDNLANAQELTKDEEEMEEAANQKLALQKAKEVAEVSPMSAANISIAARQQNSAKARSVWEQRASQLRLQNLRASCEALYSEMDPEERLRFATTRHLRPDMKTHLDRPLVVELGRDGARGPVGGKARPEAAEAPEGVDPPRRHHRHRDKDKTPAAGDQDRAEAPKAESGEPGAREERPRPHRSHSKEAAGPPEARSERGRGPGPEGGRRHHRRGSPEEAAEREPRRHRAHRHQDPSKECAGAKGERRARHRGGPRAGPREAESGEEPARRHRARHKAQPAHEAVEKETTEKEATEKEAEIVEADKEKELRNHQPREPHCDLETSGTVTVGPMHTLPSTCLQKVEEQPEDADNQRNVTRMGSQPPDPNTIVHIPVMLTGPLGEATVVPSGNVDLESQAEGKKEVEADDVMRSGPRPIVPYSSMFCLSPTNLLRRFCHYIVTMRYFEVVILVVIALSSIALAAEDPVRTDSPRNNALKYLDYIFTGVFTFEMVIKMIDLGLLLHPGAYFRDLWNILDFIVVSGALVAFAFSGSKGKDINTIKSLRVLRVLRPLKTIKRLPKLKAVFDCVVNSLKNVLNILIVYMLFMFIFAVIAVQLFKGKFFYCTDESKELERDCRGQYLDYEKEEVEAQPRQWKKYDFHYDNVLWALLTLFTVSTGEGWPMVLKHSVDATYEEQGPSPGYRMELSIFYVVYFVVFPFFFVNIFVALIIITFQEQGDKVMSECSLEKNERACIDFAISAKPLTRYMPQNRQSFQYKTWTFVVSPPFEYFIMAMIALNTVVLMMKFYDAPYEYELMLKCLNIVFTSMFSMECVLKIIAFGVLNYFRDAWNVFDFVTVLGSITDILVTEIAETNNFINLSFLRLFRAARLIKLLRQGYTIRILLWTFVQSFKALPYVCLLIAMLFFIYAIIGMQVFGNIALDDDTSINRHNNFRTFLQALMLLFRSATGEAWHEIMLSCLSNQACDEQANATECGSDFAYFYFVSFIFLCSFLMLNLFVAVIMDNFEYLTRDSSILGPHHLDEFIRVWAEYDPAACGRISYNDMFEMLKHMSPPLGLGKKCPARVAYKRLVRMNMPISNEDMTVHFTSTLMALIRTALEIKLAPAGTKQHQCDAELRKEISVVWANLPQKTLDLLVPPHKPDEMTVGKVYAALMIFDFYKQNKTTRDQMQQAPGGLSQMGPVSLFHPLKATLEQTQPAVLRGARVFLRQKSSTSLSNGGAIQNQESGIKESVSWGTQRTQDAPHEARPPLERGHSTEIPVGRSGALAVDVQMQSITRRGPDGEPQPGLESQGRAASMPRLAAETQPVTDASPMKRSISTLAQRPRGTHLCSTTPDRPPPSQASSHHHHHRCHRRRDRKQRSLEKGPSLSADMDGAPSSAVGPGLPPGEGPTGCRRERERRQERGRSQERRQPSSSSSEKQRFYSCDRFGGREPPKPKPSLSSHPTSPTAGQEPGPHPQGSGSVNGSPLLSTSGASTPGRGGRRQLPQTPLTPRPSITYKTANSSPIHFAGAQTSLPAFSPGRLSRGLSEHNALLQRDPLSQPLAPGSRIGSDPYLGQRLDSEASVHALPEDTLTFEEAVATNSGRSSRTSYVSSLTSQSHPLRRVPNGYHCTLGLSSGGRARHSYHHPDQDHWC
Sequence (P54284 whole entry partner): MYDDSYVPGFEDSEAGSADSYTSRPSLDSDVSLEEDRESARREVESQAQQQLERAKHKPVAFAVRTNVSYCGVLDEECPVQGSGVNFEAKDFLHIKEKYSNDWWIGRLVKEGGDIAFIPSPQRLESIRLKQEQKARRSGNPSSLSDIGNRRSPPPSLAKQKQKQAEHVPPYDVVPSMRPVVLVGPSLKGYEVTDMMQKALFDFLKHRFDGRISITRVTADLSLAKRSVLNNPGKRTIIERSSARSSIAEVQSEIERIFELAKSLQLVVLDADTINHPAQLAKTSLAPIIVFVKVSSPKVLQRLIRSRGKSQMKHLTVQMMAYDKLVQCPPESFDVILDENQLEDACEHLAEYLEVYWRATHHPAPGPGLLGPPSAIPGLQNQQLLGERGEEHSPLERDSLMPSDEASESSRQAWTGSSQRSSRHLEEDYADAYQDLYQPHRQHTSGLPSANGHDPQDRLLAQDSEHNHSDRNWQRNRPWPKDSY
Sequence (P54289 25-956 partner limits assumed): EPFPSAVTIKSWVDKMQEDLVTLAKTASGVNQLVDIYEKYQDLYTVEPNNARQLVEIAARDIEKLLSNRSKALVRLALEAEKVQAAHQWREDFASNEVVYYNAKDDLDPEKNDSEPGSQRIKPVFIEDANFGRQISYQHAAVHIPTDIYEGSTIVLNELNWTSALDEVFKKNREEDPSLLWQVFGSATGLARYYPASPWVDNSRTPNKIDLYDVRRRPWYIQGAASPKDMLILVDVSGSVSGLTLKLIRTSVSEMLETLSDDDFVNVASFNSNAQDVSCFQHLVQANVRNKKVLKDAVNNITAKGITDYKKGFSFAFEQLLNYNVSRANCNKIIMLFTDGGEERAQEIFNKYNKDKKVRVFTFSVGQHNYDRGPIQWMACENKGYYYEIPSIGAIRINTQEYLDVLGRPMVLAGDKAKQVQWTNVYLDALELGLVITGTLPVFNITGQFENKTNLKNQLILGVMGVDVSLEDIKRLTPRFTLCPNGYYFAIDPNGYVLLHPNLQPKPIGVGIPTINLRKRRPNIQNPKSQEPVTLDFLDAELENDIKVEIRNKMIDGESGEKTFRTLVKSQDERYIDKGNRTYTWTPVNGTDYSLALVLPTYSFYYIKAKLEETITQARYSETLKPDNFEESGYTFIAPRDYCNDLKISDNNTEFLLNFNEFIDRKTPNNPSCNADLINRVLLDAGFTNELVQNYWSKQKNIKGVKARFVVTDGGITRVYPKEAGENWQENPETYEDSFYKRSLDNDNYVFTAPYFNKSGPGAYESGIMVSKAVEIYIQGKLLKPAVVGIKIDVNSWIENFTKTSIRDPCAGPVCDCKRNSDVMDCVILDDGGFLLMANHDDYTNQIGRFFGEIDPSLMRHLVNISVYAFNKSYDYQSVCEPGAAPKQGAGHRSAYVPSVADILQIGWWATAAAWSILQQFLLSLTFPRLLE
Sequence (P54289 957-1103 partner limits assumed): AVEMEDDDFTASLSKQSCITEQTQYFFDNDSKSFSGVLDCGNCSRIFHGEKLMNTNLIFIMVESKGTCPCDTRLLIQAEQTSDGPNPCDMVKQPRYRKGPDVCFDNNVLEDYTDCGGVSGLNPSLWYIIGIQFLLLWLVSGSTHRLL
test.method.notes: FLIPR calcium mobilization assay for N-type calcium channel
experimental.context: calcium mobilization in vitro assay, differentiated IMR32 cells
# number only, unit µM dropped from output

>>> df
                        structure_as_smiles  unit_tag  reported_result
0  O=c1n(CCCC(c2ccc(F)cc2)c2ccc(F)cc2)c2ccccc2n1Cc1ccccn1        µM             0.81

# query: IC50 of entry O=C1N(CC=Cc2ccccc2)CCN1CCCC(c1ccc(F)cc1)c1ccc(F)cc1
1.14

Entry to check: O=C1N(CCCC(c2ccc(F)cc2)c2ccc(F)cc2)CCN1Cc1ccncc1
1.19
